Species on record: Cavia porcellus
protocol: Tested for effect on the production of Lipoxygenase (LO) metabolite, 5-HETE in guinea pig peritoneal polymorphonuclear neutrophils at 30 uM concentration
Assay type: functional
# if value of Reduction reaches 20%, tag 1; if it stays below, tag -1

{"columns": ["compound", "group"],
 "data": [
  ["CCC1(CC)C(=O)Oc2ccc(C(=O)c3cccs3)cc21", -1],
  ["O=C(c1ccc2c(c1)C(C(=O)Nc1ccccc1)C(=O)O2)c1cccs1 (configuration not stated)", 1],
  ["COc1ccc2c(c1)c(CC(=O)O)c(C)n2C(=O)c1ccc(Cl)cc1", -1],
  ["CC1C(=O)Oc2ccc(C(=O)c3cccs3)cc21 (configuration not stated)", 1],
  ["C=CCOc1ccc(C(=O)c2cccs2)cc1C(C)C(=O)O (configuration not stated)", -1],
  ["CC1C(=O)Oc2ccc(C(=O)c3ccccc3)cc21 (configuration not stated)", -1],
  ["CCCC1C(=O)Oc2ccc(C(=O)c3cccs3)cc21 (configuration not stated)", -1],
  ["Cc1ccc(C(=O)c2ccc(O)c(C(C)C(=O)O)c2)s1 (configuration not stated)", -1],
  ["Cc1ccc(C(=O)c2ccc3c(c2)C(C)C(=O)O3)s1 (configuration not stated)", -1],
  ["CC(C(=O)O)c1cc(C(=O)c2ccco2)ccc1O (configuration not stated)", -1],
  ["COc1ccc(C(=O)c2ccc3c(c2)C(C)C(=O)O3)cc1 (configuration not stated)", 1],
  ["CCC(C(=O)O)c1cc(C(=O)c2cccs2)ccc1O (configuration not stated)", -1]
]}
